Experiment: Drug metabolism in pH 7.4 phosphate buffer solution assessed as NO release at 10^-5 M after 0.75 hrs in presence of L-cysteine by Griess assay
Format: physicochemical
Details: pH 7.4, 0.75 h, 10 µM

| entrySmiles | Drug metabolism [µmol/L] |
| --- | --- |
| O=C(OCCCO[N+](=O)[O-])[C@H]1O[C@@H](Oc2cc3oc(-c4ccc(OCc5ccccc5)cc4)cc(=O)c3c(O)c2OCc2ccccc2)[C@H](O)[C@@H](O)[C@@H]1O | 4.69 |
| O=C(NCCCOc1no[n+]([O-])c1S(=O)(=O)c1ccccc1)[C@H]1O[C@@H](Oc2cc3oc(-c4ccc(OCc5ccccc5)cc4)cc(=O)c3c(O)c2OCc2ccccc2)[C@H](O)[C@@H](O)[C@@H]1O | 11.92 |
| COc1ccc(-c2cc(=O)c3c(O)c(OC)c(O[C@@H]4O[C@H](C(=O)N5CCN(CCOc6no[n+]([O-])c6S(=O)(=O)c6ccccc6)CC5)[C@@H](O)[C@H](O)[C@H]4O)cc3o2)cc1 | 26.03 |
| O=C([C@H]1O[C@@H](Oc2cc3oc(-c4ccc(OCc5ccccc5)cc4)cc(=O)c3c(O)c2OCc2ccccc2)[C@H](O)[C@@H](O)[C@@H]1O)N1CCN(CCOc2no[n+]([O-])c2S(=O)(=O)c2ccccc2)CC1 | 12.64 |

* * *

Assay: Selectivity index, ratio of IC50 for human LO2 cells to IC50 for human HepG2 cells
Assay type: functional
Each record here notes measured Ratio IC50.

| compound | Ratio IC50 |
| --- | --- |
| O=C([C@H]1O[C@@H](Oc2cc3oc(-c4ccc(OCc5ccccc5)cc4)cc(=O)c3c(O)c2OCc2ccccc2)[C@H](O)[C@@H](O)[C@@H]1O)N1CCN(CCOc2no[n+]([O-])c2S(=O)(=O)c2ccccc2)CC1 | 6.2 |
| COc1ccc(-c2cc(=O)c3c(O)c(OC)c(O[C@@H]4O[C@H](C(=O)NCC(C)Oc5no[n+]([O-])c5S(=O)(=O)c5ccccc5)[C@@H](O)[C@H](O)[C@H]4O)cc3o2)cc1 (stereo partly drawn) | 3.2 |
| CC(CNC(=O)[C@H]1O[C@@H](Oc2cc3oc(-c4ccc(OCc5ccccc5)cc4)cc(=O)c3c(O)c2OCc2ccccc2)[C@H](O)[C@@H](O)[C@@H]1O)Oc1no[n+]([O-])c1S(=O)(=O)c1ccccc1 (stereo partly drawn) | 17.7 |

* * *

Experiment: Drug metabolism in pH 7.4 phosphate buffer solution assessed as NO release at 10^-5 M after 0.25 hrs in presence of L-cysteine by Griess assay
Format: physicochemical
Conditions: pH 7.4, 0.25 h, 10 µM
Each record here notes measured Drug metabolism.

| molecule | Drug metabolism [µmol/L] |
| --- | --- |
| COc1ccc(-c2cc(=O)c3c(O)c(OC)c(O[C@@H]4O[C@H](C(=O)NCC(C)Oc5no[n+]([O-])c5S(=O)(=O)c5ccccc5)[C@@H](O)[C@H](O)[C@H]4O)cc3o2)cc1 (some centres not stated) | 12.46 |
| COc1ccc(-c2cc(=O)c3c(O)c(OC)c(O[C@@H]4O[C@H](C(=O)N5CCN(CCOc6no[n+]([O-])c6S(=O)(=O)c6ccccc6)CC5)[C@@H](O)[C@H](O)[C@H]4O)cc3o2)cc1 | 13.73 |
| O=C(NCCOc1no[n+]([O-])c1S(=O)(=O)c1ccccc1)[C@H]1O[C@@H](Oc2cc3oc(-c4ccc(OCc5ccccc5)cc4)cc(=O)c3c(O)c2OCc2ccccc2)[C@H](O)[C@@H](O)[C@@H]1O | 11.2 |
| CC(CNC(=O)[C@H]1O[C@@H](Oc2cc3oc(-c4ccc(OCc5ccccc5)cc4)cc(=O)c3c(O)c2OCc2ccccc2)[C@H](O)[C@@H](O)[C@@H]1O)Oc1no[n+]([O-])c1S(=O)(=O)c1ccccc1 (some centres not stated) | 11.92 |
| O=C(NCCCOc1no[n+]([O-])c1S(=O)(=O)c1ccccc1)[C@H]1O[C@@H](Oc2cc3oc(-c4ccc(OCc5ccccc5)cc4)cc(=O)c3c(O)c2OCc2ccccc2)[C@H](O)[C@@H](O)[C@@H]1O | 7.58 |
| COc1ccc(-c2cc(=O)c3c(O)c(OC)c(O[C@@H]4O[C@H](C(=O)OCCCO[N+](=O)[O-])[C@@H](O)[C@H](O)[C@H]4O)cc3o2)cc1 | 0.53 |
| O=C([C@H]1O[C@@H](Oc2cc3oc(-c4ccc(OCc5ccccc5)cc4)cc(=O)c3c(O)c2OCc2ccccc2)[C@H](O)[C@@H](O)[C@@H]1O)N1CCN(CCOc2no[n+]([O-])c2S(=O)(=O)c2ccccc2)CC1 | 7.94 |

* * *

Each record here notes measured Drug metabolism.
Assay: Drug metabolism in pH 7.4 phosphate buffer solution assessed as NO release at 10^-5 M after 0.75 hrs in presence of L-cysteine by Griess assay
Assay type: physicochemical
Conditions: pH 7.4, 0.75 h, 10 µM
observable: Drug metabolism (µmol/L)

| molecule | assayResult |
| --- | --- |
| COc1ccc(-c2cc(=O)c3c(O)c(OC)c(O[C@@H]4O[C@H](C(=O)OCCO[N+](=O)[O-])[C@@H](O)[C@H](O)[C@H]4O)cc3o2)cc1 | 2.34 |
| COc1ccc(-c2cc(=O)c3c(O)c(OC)c(O[C@@H]4O[C@H](C(=O)NCC(C)Oc5no[n+]([O-])c5S(=O)(=O)c5ccccc5)[C@@H](O)[C@H](O)[C@H]4O)cc3o2)cc1 (stereo not given in full) | 24.94 |
| O=C(OCCO[N+](=O)[O-])[C@H]1O[C@@H](Oc2cc3oc(-c4ccc(OCc5ccccc5)cc4)cc(=O)c3c(O)c2OCc2ccccc2)[C@H](O)[C@@H](O)[C@@H]1O | 4.69 |
| CC(CNC(=O)[C@H]1O[C@@H](Oc2cc3oc(-c4ccc(OCc5ccccc5)cc4)cc(=O)c3c(O)c2OCc2ccccc2)[C@H](O)[C@@H](O)[C@@H]1O)Oc1no[n+]([O-])c1S(=O)(=O)c1ccccc1 (stereo not given in full) | 15.72 |
| COc1ccc(-c2cc(=O)c3c(O)c(OC)c(O[C@@H]4O[C@H](C(=O)NCCCOc5no[n+]([O-])c5S(=O)(=O)c5ccccc5)[C@@H](O)[C@H](O)[C@H]4O)cc3o2)cc1 | 20.42 |

* * *

Each record here notes measured Drug metabolism.
Tested on: L02
Assay: Drug metabolism in human LO2 cells assessed as NO release at 100 uM after 1 hr by Griess assay
Format: ADME, cell-based
Details: l02, 1 h

| entrySmiles | Drug metabolism |
| --- | --- |
| COc1ccc(-c2cc(=O)c3c(O)c(OC)c(O[C@@H]4O[C@H](C(=O)NCCCOc5no[n+]([O-])c5S(=O)(=O)c5ccccc5)[C@@H](O)[C@H](O)[C@H]4O)cc3o2)cc1 | < 15.5 µM |
| COc1ccc(-c2cc(=O)c3c(O)c(OC)c(O[C@@H]4O[C@H](C(=O)NCCOc5no[n+]([O-])c5S(=O)(=O)c5ccccc5)[C@@H](O)[C@H](O)[C@H]4O)cc3o2)cc1 | < 15.5 µM |
| O=C(NCCCOc1no[n+]([O-])c1S(=O)(=O)c1ccccc1)[C@H]1O[C@@H](Oc2cc3oc(-c4ccc(OCc5ccccc5)cc4)cc(=O)c3c(O)c2OCc2ccccc2)[C@H](O)[C@@H](O)[C@@H]1O | < 15.46 uM/L |

* * *

Assay: Drug metabolism in pH 7.4 phosphate buffer solution assessed as NO release at 10^-5 M after 0.5 hrs in presence of L-cysteine by Griess assay
Assay type: physicochemical
Conditions: pH 7.4, 0.5 h, 10 µM

| entrySmiles | Drug metabolism, µmol/L |
| --- | --- |
| O=C(NCCOc1no[n+]([O-])c1S(=O)(=O)c1ccccc1)[C@H]1O[C@@H](Oc2cc3oc(-c4ccc(OCc5ccccc5)cc4)cc(=O)c3c(O)c2OCc2ccccc2)[C@H](O)[C@@H](O)[C@@H]1O | 14.27 |
| O=C(OCCO[N+](=O)[O-])[C@H]1O[C@@H](Oc2cc3oc(-c4ccc(OCc5ccccc5)cc4)cc(=O)c3c(O)c2OCc2ccccc2)[C@H](O)[C@@H](O)[C@@H]1O | 4.51 |
| O=C(OCCCO[N+](=O)[O-])[C@H]1O[C@@H](Oc2cc3oc(-c4ccc(OCc5ccccc5)cc4)cc(=O)c3c(O)c2OCc2ccccc2)[C@H](O)[C@@H](O)[C@@H]1O | 4.33 |

* * *

Experiment: Drug metabolism in pH 7.4 phosphate buffer solution assessed as NO release at 10^-5 M after 1 hr in presence of L-cysteine by Griess assay
Type: physicochemical
Conditions: pH 7.4, 1 h, 10 µM

| compound | Drug metabolism / µmol/L |
| --- | --- |
| COc1ccc(-c2cc(=O)c3c(O)c(OC)c(O[C@@H]4O[C@H](C(=O)NCCCOc5no[n+]([O-])c5S(=O)(=O)c5ccccc5)[C@@H](O)[C@H](O)[C@H]4O)cc3o2)cc1 | 24.22 |
| O=C(OCCCO[N+](=O)[O-])[C@H]1O[C@@H](Oc2cc3oc(-c4ccc(OCc5ccccc5)cc4)cc(=O)c3c(O)c2OCc2ccccc2)[C@H](O)[C@@H](O)[C@@H]1O | 5.05 |
| COc1ccc(-c2cc(=O)c3c(O)c(OC)c(O[C@@H]4O[C@H](C(=O)NCCOc5no[n+]([O-])c5S(=O)(=O)c5ccccc5)[C@@H](O)[C@H](O)[C@H]4O)cc3o2)cc1 | 49.35 |
| CC(CNC(=O)[C@H]1O[C@@H](Oc2cc3oc(-c4ccc(OCc5ccccc5)cc4)cc(=O)c3c(O)c2OCc2ccccc2)[C@H](O)[C@@H](O)[C@@H]1O)Oc1no[n+]([O-])c1S(=O)(=O)c1ccccc1 (some centres not stated) | 17.71 |
| O=C(NCCCOc1no[n+]([O-])c1S(=O)(=O)c1ccccc1)[C@H]1O[C@@H](Oc2cc3oc(-c4ccc(OCc5ccccc5)cc4)cc(=O)c3c(O)c2OCc2ccccc2)[C@H](O)[C@@H](O)[C@@H]1O | 13.55 |
| COc1ccc(-c2cc(=O)c3c(O)c(OC)c(O[C@@H]4O[C@H](C(=O)N5CCN(CCOc6no[n+]([O-])c6S(=O)(=O)c6ccccc6)CC5)[C@@H](O)[C@H](O)[C@H]4O)cc3o2)cc1 | 33.8 |
| O=C(NCCOc1no[n+]([O-])c1S(=O)(=O)c1ccccc1)[C@H]1O[C@@H](Oc2cc3oc(-c4ccc(OCc5ccccc5)cc4)cc(=O)c3c(O)c2OCc2ccccc2)[C@H](O)[C@@H](O)[C@@H]1O | 19.52 |
| O=C(OCCO[N+](=O)[O-])[C@H]1O[C@@H](Oc2cc3oc(-c4ccc(OCc5ccccc5)cc4)cc(=O)c3c(O)c2OCc2ccccc2)[C@H](O)[C@@H](O)[C@@H]1O | 6.13 |
| COc1ccc(-c2cc(=O)c3c(O)c(OC)c(O[C@@H]4O[C@H](C(=O)OCCCO[N+](=O)[O-])[C@@H](O)[C@H](O)[C@H]4O)cc3o2)cc1 | 1.25 |
| COc1ccc(-c2cc(=O)c3c(O)c(OC)c(O[C@@H]4O[C@H](C(=O)OCCO[N+](=O)[O-])[C@@H](O)[C@H](O)[C@H]4O)cc3o2)cc1 | 2.34 |
| O=C([C@H]1O[C@@H](Oc2cc3oc(-c4ccc(OCc5ccccc5)cc4)cc(=O)c3c(O)c2OCc2ccccc2)[C@H](O)[C@@H](O)[C@@H]1O)N1CCN(CCOc2no[n+]([O-])c2S(=O)(=O)c2ccccc2)CC1 | 14.27 |
| COc1ccc(-c2cc(=O)c3c(O)c(OC)c(O[C@@H]4O[C@H](C(=O)NCC(C)Oc5no[n+]([O-])c5S(=O)(=O)c5ccccc5)[C@@H](O)[C@H](O)[C@H]4O)cc3o2)cc1 (some centres not stated) | 34.16 |
